binders and their reported IC50
Target: T1, Plasmin from human plasma (human, UniProt P00747 97-810)
T1 chain: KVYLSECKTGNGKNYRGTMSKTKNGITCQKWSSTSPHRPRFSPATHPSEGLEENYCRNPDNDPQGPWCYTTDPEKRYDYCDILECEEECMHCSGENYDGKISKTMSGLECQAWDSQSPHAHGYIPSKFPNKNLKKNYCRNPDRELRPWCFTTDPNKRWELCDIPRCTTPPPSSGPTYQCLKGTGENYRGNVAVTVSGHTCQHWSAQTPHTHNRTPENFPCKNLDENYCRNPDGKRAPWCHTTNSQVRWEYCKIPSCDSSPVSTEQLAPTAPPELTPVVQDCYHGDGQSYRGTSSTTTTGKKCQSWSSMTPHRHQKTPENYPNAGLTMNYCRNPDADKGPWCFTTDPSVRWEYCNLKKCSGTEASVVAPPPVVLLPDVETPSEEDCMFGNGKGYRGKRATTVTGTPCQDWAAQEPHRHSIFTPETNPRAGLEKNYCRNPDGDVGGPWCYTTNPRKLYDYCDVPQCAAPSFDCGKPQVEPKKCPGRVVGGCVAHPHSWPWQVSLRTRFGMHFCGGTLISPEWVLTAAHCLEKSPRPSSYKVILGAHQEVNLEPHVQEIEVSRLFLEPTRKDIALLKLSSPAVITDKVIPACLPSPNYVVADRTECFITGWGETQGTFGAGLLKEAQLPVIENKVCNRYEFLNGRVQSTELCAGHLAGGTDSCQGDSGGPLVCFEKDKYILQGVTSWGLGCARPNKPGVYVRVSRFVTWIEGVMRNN
Test: substrate peptide degradation inhibition

binder: active MMP-9-binding peptide M91010 (designed binder) GSGMKETAAAKFERQHMDSPDLGTDDDDKAMADIGSANSDPQFGLFSKYRTPNCRKVGEPACQMSFNPVCGSDMSTYANECTLCMKIREGGHNIKIIRNGPCGASAAA
assay.readout: IC50
value: > 1000 nM

Alright, here's another binder for you.
QUERY: Note down IC50 recorded for active MMP-9-binding peptide M91005 (designed binder) GSGMKETAAAKFERQHMDSPDLGTDDDDKAMADIGSANSDPQFGLFSKYRTPNCRKRGGPSCQMSYNPVCGSDMSTYANECTLCMKIREGGHNIKIIRNGPCGASAAA
RESULT: > 1000 nM

Data credit: patent US20200231654A1
